- target_entity: Human PDE4B1 (Homo sapiens, UniProt Q07343, S133E/S654A/S659A/S661A)
- Construct: His6 (N); thrombin cleavage site (N); made in house; host or cells: insect cells (baculovirus, pFastBac)
- Sequence (Q07343 122-736 S133E/S654A/S659A/S661A): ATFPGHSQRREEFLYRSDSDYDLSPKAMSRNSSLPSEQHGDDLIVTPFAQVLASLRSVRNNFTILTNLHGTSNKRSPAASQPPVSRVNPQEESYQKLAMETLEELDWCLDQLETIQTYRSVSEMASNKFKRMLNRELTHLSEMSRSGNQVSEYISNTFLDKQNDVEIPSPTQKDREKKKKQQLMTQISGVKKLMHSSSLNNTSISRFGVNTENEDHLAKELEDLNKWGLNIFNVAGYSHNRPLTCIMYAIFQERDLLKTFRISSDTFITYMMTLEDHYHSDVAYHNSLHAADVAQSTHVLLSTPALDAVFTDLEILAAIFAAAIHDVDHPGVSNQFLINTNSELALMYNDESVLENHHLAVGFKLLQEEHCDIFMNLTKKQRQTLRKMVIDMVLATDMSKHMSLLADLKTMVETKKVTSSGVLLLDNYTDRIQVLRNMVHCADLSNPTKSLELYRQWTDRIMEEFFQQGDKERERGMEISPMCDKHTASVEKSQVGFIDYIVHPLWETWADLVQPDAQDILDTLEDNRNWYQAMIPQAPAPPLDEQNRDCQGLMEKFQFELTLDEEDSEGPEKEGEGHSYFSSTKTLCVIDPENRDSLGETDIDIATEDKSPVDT
- run_description: PDE4B1 Scintillation Proximity Assay (SPA), inhibition of enzyme activity
- Format: biochemical
- test_conditions: geometric mean of 2-7 determinations unless otherwise indicated (b: ≥8 determinations; c: single determination); 1 μM cAMP, 30 min at 25° C.; read-out: Human PDE4B FL; IC50
readout_label: IC50
Respond with a number, then the unit of measure.

O=C(NC1CC1)c1nn2cccnc2c1-c1cncc(Cl)c1 [Example 29] = 132 nM

Lookup: Consider the compound shown here: O=C(c1nn2cccnc2c1-c1ccc(Cl)cc1F)N1CCC1 [Example 20] What is its recorded IC50?
Found: 67.4 nM

Lookup: Which value of IC50 has been reported for O=C(NC1CC1)c1nn2cccnc2c1-c1ccc(Cl)cc1 [Example 10] in the records?
Found: 96.9 nM

Lookup: Given the entry Cc1cc(Cl)c(F)cc1-c1c(C(=O)NC2CC2)nn2cccnc12 [Example 25] , report its measured IC50.
Found: 9.61 nM

Lookup: Field request: IC50 | item: CCNC(=O)c1nn2cccnc2c1-c1cc(F)c(Cl)cc1C [Example 17]
Found: 21 nM

Lookup: Dear colleague, I am looking for the recorded IC50 of the following compound: O=C(NC1CC1)c1nn2cc(F)cnc2c1-c1ccc2ocnc2c1 [Example 65]
Found: 59 nM

Lookup: Please give the measured IC50 for this compound: Cc1cc(C#N)c(F)cc1-c1c(C(=O)NC2CCC2)nn2cccnc12 [Example 22]
Found: 273 nM

Lookup: I'd like to know its IC50. The compound in question is O=C(NC1CC1)c1nn2cc(F)cnc2c1-c1ccnc(OC(F)F)c1 [Example 56]
Found: 22.3 nM

###

- target_entity: human PDE4D3 (Homo sapiens)
- Construct: His6 (C); made in house; host or cells: insect cells (baculovirus, pFastBac)
- run_description: PDE4D3 Scintillation Proximity Assay (SPA), inhibition of enzyme activity
- Format: biochemical
- test_conditions: geometric mean of 2-7 determinations unless otherwise indicated (b: ≥8 determinations; c: single determination); 1 μM cAMP, 30 min at 25° C.; read-out: Human PDE4D FL; IC50
pIC50: −log10 of the molar value. Where a name gives a salt, the structure may show the parent alone.
Overview of recorded pIC50 for various compounds

Some compounds with known pIC50 results, for comparison:
O=C(NC1CC1)c1nn2cccnc2c1-c1ccc2ocnc2c1 [Example 60] = < 4.81
CC1CC1NC(=O)c1nn2cccnc2c1-c1ccc(Cl)cc1 (centres unmarked) [Example 34] = < 4.91
O=C(NC1(C(F)(F)F)CC1)c1nn2cccnc2c1-c1ccc(Cl)cc1 [Example 36, hydrochloride salt] = < 4.60
O=C(Nc1ncccn1)c1nn2cccnc2c1-c1ccc(Cl)cc1 [Example 8] = < 4.60

Lookup: # lookup: pIC50 of CNC(=O)c1nn2cccnc2c1-c1ccc(Cl)cc1 [Example 73]
Found: < 4.55

###

Recorded IC50 for the following molecules
- target_entity: human PDE4D3 (Homo sapiens, UniProt Q08499)
- Construct: His6 (C); made in house; host or cells: insect cells (baculovirus, pFastBac)
- Sequence (Q08499 186-808): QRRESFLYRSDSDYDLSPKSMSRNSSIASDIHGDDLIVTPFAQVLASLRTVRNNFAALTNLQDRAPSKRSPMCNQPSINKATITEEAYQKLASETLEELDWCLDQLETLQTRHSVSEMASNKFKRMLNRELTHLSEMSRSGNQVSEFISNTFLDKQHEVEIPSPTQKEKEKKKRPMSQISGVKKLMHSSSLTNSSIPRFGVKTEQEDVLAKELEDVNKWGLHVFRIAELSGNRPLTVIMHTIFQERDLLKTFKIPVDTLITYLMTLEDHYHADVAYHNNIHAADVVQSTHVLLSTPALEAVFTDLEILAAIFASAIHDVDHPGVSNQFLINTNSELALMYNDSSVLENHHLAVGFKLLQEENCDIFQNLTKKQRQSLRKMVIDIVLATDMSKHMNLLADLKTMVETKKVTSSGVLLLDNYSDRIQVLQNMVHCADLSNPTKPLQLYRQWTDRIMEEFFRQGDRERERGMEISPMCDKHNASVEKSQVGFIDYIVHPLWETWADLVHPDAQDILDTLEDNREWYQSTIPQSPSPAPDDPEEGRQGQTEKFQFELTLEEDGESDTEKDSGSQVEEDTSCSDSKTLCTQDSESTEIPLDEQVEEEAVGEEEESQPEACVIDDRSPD
- run_description: PDE4D3 Scintillation Proximity Assay (SPA), inhibition of enzyme activity
- Format: biochemical
- test_conditions: geometric mean of 2-7 determinations unless otherwise indicated (b: ≥8 determinations; c: single determination); 1 μM cAMP, 30 min at 25° C.; read-out: Human PDE4D FL; IC50
Structures can show the parent of a compound that is named as a salt.
Numeric only. Scale: nM

O=C(NC1CC1)c1nn2cc(F)cnc2c1-c1cc(F)c(Cl)cc1F = 43
O=C(NC1CC1)c1nn2cccnc2c1-c1cc(Cl)ccc1F = 2460
Cc1ccc(-c2c(C(=O)NC3CC3)nn3cccnc23)cc1F = 680

Lookup: Query for human PDE4D3 (Homo sapiens, UniProt Q08499): what IC50 does the record show for `O=C(NC1CC1)c1nn2cc(F)cnc2c1-c1ccnc(OC(F)F)c1` ?
Found: 78.4

Lookup: Lab note: need IC50 for `CC(C)NC(=O)c1nn2cccnc2c1-c1ccc(Cl)cc1` on human PDE4D3 (Homo sapiens, UniProt Q08499), anyone have it?
Found: 4910

Lookup: # get_value(readout= IC50, system= human PDE4D3 (Homo sapiens, UniProt Q08499)) for O=C(NC1CC1)c1nn2cccnc2c1-c1ccc(Cl)c(Cl)c1 [Example 32, hydrochloride salt]
Found: 720

Lookup: // fetch human PDE4D3 (Homo sapiens, UniProt Q08499) IC50 for `O=C(c1nn2cccnc2c1-c1cc(Cl)ccc1F)N1CCC1`
Found: 5990

Lookup: Form field: IC50 recorded for `Cc1cc(Cl)c(F)cc1-c1c(C(=O)NC2CCC2)nn2cccnc12` with human PDE4D3 (Homo sapiens, UniProt Q08499) (enter value)
Found: 606

Lookup: Give recorded IC50 with human PDE4D3 (Homo sapiens, UniProt Q08499) for the following molecule: `O=C(NC1CC1)c1nn2cc(F)cnc2c1-c1ccc(Cl)cc1`
Found: 1080

Lookup: For human PDE4D3 (Homo sapiens, UniProt Q08499), provide IC50 of O=C(NC1CC1(F)F)c1nn2cccnc2c1-c1ccc(Cl)c(F)c1 (stereo not drawn) please.
Found: 300

Lookup: Given the entry `O=C(NC1CC1)c1nn2cc(F)cnc2c1-c1ccc2ocnc2c1` , what IC50 was observed with human PDE4D3 (Homo sapiens, UniProt Q08499)?
Found: 1160

Lookup: Form: Entry = `N#Cc1ccc(-c2c(C(=O)N3CCC3)nn3cccnc23)cc1F` | System = human PDE4D3 (Homo sapiens, UniProt Q08499) | IC50 = ____
Found: 6630

Lookup: Given the entry `O=C(Nc1nn2cccnc2c1-c1ccc(Cl)c(F)c1)c1ccccc1` , what IC50 was observed with human PDE4D3 (Homo sapiens, UniProt Q08499)?
Found: 27000

Lookup: So what IC50 did `Cc1cc(Cl)c(F)cc1-c1c(C(=O)NC2CC2)nn2cc(F)cnc12` get with human PDE4D3 (Homo sapiens, UniProt Q08499)?
Found: 52.6

Lookup: Test system human PDE4D3 (Homo sapiens, UniProt Q08499); read-out IC50; what value for `CCNC(=O)c1nn2cccnc2c1-c1ccc(Cl)cc1C` ?
Found: 6880

Lookup: Please state recorded IC50 (tested on human PDE4D3 (Homo sapiens, UniProt Q08499)) of `N#Cc1c(F)cc(-c2c(C(=O)N3CCC3)nn3cccnc23)cc1F`
Found: 242

Lookup: Given the entry `CCNC(=O)c1nn2cccnc2c1-c1ccc(Cl)c(F)c1` , what IC50 was observed with human PDE4D3 (Homo sapiens, UniProt Q08499)?
Found: 830

###

- target_entity: Human PDE4B1 (Homo sapiens, UniProt Q07343, S133E/S654A/S659A/S661A)
- Construct: His6 (N); thrombin cleavage site (N); made in house; host or cells: insect cells (baculovirus, pFastBac)
- run_description: PDE4B1 Scintillation Proximity Assay (SPA), inhibition of enzyme activity
- Format: biochemical
- test_conditions: geometric mean of 2-7 determinations unless otherwise indicated (b: ≥8 determinations; c: single determination); 1 μM cAMP, 30 min at 25° C.; read-out: Human PDE4B FL; IC50
pIC50: −log10 of the molar value. Structures can show the parent of a compound that is named as a salt.
I would appreciate it if you labelled entries Y when pIC50 is 7 or higher, otherwise N.

Lookup: Quick check: does `COc1cc(-c2c(C(=O)NC3CC3)nn3cccnc23)ccn1` have pIC50 greater than or equal to 7?
Found: N

Lookup: State whether the measured pIC50 reaches 7, counting equality as reaching it, for `Cc1cc(Cl)c(F)cc1-c1c(C(=O)NC2CCC2)nn2cccnc12`
Found: Y

Lookup: In plain terms: is recorded pIC50 at least 7 for `Cc1cc(Cl)c(F)cc1-c1c(C(=O)N2CCC2)nn2cccnc12` ?
Found: Y

Lookup: Could you please find out whether O=C(NC1CC1)c1nn2cccnc2c1-c1cccc(Cl)c1 [Example 31, hydrochloride salt] has pIC50 that meets 7 or exceeds it?
Found: Y

###

- target_entity: Human PDE4A3 (Homo sapiens, UniProt P27815)
- Sequence (P27815 2-825 isoform P27815-6): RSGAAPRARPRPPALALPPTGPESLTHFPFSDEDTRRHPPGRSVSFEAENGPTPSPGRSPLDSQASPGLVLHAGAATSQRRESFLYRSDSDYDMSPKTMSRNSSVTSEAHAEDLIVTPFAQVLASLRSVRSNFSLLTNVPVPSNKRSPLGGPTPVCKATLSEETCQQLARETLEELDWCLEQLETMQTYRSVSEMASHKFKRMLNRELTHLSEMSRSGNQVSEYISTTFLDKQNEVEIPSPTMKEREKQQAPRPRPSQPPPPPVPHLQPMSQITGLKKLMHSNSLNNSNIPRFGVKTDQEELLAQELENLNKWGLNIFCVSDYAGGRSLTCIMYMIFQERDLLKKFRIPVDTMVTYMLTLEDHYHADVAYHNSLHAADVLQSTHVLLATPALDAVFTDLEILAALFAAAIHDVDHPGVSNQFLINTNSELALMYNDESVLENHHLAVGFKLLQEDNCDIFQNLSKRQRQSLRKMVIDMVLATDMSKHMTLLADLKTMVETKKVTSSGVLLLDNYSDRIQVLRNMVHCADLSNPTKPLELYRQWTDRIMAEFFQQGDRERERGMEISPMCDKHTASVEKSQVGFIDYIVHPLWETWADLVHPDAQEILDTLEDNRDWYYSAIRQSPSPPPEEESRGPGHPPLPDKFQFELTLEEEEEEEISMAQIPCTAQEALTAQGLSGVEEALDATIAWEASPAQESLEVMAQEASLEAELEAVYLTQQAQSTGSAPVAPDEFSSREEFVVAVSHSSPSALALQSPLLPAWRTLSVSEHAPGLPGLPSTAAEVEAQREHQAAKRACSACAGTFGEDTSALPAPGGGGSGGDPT
readout_label: pIC50
Here pIC50 is given on a logarithmic scale as minus log10 of the concentration in mol/L.

Worked cases, pIC50 given:
Cc1cc(C#N)c(F)cc1-c1c(C(=O)N2CCC2)nn2cccnc12 = 8.47
N#Cc1ccc(-c2c(C(=O)N3CCC3)nn3cccnc23)cc1F = 6.96
O=C(NC1CC1)c1nn2cccnc2c1-c1ccc(Cl)c(F)c1F = 7.99
Cc1cc(Cl)ccc1-c1c(C(=O)NC2CC2)nn2cccnc12 = 7.54
O=C(NC1CC1(F)F)c1nn2cccnc2c1-c1ccc(Cl)c(F)c1 (stereo not drawn) = 7.63

Lookup: Entry `Cc1cc(Cl)ccc1-c1c(C(=O)NC(C)C)nn2cccnc12` has what pIC50?
Found: 6.84

Lookup: Which measured pIC50 value corresponds to `CCNC(=O)c1nn2cccnc2c1-c1ccnc(OC(F)F)c1` ?
Found: 7.75

Lookup: Please report the recorded pIC50 for `O=C(NC1CC1)c1nn2cc(F)cnc2c1-c1cc(F)c(Cl)cc1F` .
Found: 9.11

Lookup: Quick one: pIC50 for `N#Cc1c(F)cc(-c2c(C(=O)N3CCC3)nn3cccnc23)cc1F` ?
Found: 8.36

These measurements were taken from patent US10131669B2.
